Data origin: patent US6333320A

# assayTarget: human activated blood coagulation factor X (Homo sapiens)
# Construct: disulfide-linked light and heavy chains of one precursor) added to human plasma with CaCl2; clotting time CT2
# Sequence (P00742 41-179): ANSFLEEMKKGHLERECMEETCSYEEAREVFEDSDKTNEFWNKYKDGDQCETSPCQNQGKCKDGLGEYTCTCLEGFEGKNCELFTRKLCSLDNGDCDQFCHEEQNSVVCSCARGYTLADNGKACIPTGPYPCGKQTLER
# Sequence (P00742 235-488): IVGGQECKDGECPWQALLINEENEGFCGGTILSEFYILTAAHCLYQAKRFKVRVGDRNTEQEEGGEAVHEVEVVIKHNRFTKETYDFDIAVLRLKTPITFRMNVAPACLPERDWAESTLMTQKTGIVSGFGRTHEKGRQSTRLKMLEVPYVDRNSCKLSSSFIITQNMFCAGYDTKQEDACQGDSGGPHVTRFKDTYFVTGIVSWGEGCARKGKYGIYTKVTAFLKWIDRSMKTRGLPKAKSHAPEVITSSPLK
# protocolDescription: measuring the time for blood coagulation with the human activated blood coagulation factor X
# Format: biochemical
# statedConditions: dose of the test compound for 2-time prolongation of the coagulation time; human plasma, 37° C.; read-out: Test for measuring coagulation time with the human activated blood coagulation factor X, CT2
Structures can show the parent of a compound that is named as a salt.
# reported EC (2-fold clotting time); entries follow
Could you write the number and then its unit?

Worked set:
> print(dat)
                                   molecule  recordedmeasurement
1  CC(=N)N1CCCN(c2ccc(N(Cc3ccc4ccc(C(=N)N)cc4c3)S(=O)(=O)CC(=O)O)cn2)CC1             0.089 µM
2  CC(=N)N1CCCN(c2ccc(N(Cc3ccc4ccc(C(=N)N)cc4c3)C(=O)CCC(=O)O)cn2)CC1             0.134 µM
3  CCOC(=O)CC(=O)N(Cc1ccc2ccc(C(=N)N)cc2c1)c1ccc(N2CCCN(C(C)=N)CC2)cc1             0.152 µM
4  CCOC(=O)CC(=O)N(Cc1ccc2ccc(C(=N)N)cc2c1)c1ccc(N2CCCN(C(C)=N)CC2)nc1             0.119 µM
5  CCOC(=O)CS(=O)(=O)N(Cc1ccc2ccc(C(=N)N)cc2c1)c1ccc(N2CCCN(C(C)=N)CC2)cc1 [Example 22, dihydrochloride]             0.111 µM

Req: Suppose we examine the molecule `CC(=N)N1CCCN(c2ccc(N(Cc3ccc4ccc(C(=N)N)cc4c3)C(=O)CCC(=O)O)cc2)CC1` ; what EC (2-fold clotting time) value has been reported?
Resp: 0.069 µM

Req: Query: EC (2-fold clotting time); subject: `CCOC(=O)CNS(=O)(=O)N(Cc1ccc2ccc(C(=N)N)cc2c1)c1ccc(N2CCCN(C(C)=N)CC2)cc1`
Resp: 0.11 µM

Req: So what's the measured EC (2-fold clotting time) for this one? `CCOC(=O)CCC(=O)N(Cc1ccc2ccc(C(=N)N)cc2c1)c1ccc(N2CCCN(C(C)=N)CC2)nc1`
Resp: 0.224 µM

Req: For the molecule shown here, `CC(=N)N1CCCN(c2ccc(N(Cc3ccc4ccc(C(=N)N)cc4c3)C(C)=O)cc2)CC1` , give the reported EC (2-fold clotting time).
Resp: 0.092 µM

Req: I am curious: what EC (2-fold clotting time) value has been reported for `CC(=N)N1CCCN(c2ccc(N(Cc3ccc4ccc(C(=N)N)cc4c3)C(=S)NCC(=O)O)cc2)CC1` ?
Resp: 0.095 µM

Req: Look at this molecule and give its reported EC (2-fold clotting time). `CC(=N)N1CCCN(c2ccc(N(Cc3ccc4ccc(C(=N)N)cc4c3)S(=O)(=O)CC(=O)O)cc2)CC1`
Resp: 0.098 µM
